Catalogue of binders with associated OD at 405 nm
Biological target: T1, non-structural 3 protein (NS3) of the hepatitis C virus (HCV) (hepatitis C virus)
T1 construct: Control antigen; also called HCV NS3
Experiment: EIA, support-bound peptide, HCV NS3 control
Answer format: numeric, OD implied, no suffix.

Sample records with OD at 405 nm:
{"binder": "QKFKGKATLTVDKSSSTAYM (also called Peptide # 30) [QKFKGKATLTVDKSSSTAYM (SEQ. ID. No. 33)]", "endpoint unit": "OD", "OD at 405 nm": 0.035}
{"binder": "EQGLEWIGWIFPGEGSTEYN (also called Peptide # 5) [EQGLEWIGWIFPGEGSTEYN (SEQ. ID. No. 8)]", "endpoint unit": "OD", "OD at 405 nm": 0.182}
{"binder": "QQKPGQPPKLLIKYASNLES [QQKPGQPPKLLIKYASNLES (SEQ. ID. No. 19)]", "endpoint unit": "OD", "OD at 405 nm": 0.016}
{"binder": "YDIDWVRQTPEQGLEWIGWI (also called Peptide # 4) [YDIDWVRQTPEQGLEWIGWI (SEQ. ID. No. 7)]", "endpoint unit": "OD", "OD at 405 nm": 0.089}
{"binder": "AVYFCARGDYDYYRRYFDLW (also called Peptide # 10) [AVYFCARGDYDYYRRYFDLW (SEQ. ID. No. 13)]", "endpoint unit": "OD", "OD at 405 nm": 0.038}

Give me measured OD at 405 nm, please, for this binder: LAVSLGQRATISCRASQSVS [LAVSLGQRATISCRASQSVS (SEQ. ID. No. 16)]
0.128

Give me measured OD at 405 nm, please, for this binder: VDKSSSTAYMELTRLTSEDS (also called Peptide # 8) [VDKSSSTAYMELTRLTSEDS (SEQ. ID. No. 11)]
0.041
